# experimental_system: RARα (Homo sapiens)
# Sequence (P10276 whole entry, species assumed): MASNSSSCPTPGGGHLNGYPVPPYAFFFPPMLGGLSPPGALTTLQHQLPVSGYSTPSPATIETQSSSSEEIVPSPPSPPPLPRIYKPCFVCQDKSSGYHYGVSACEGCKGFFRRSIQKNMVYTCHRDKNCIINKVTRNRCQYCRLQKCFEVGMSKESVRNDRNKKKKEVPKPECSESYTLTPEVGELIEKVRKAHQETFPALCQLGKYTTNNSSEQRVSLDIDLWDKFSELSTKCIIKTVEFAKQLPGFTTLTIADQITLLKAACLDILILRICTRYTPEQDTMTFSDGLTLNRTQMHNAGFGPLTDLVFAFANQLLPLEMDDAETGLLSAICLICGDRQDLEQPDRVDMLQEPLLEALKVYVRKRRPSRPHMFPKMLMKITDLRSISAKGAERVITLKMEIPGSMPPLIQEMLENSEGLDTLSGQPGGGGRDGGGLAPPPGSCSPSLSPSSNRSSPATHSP
# test_description: Holoreceptor transactivation assay, RARα
# condition_info: CV1 cells, luciferase reporter, 36 hours incubation

| compound | EC50 |
| --- | --- |
| CC(C=CC1CC1(C)c1ccc2c(c1)C(C)(C)CCS2)=CC(=O)O (stereo not shown) | 1200 nM |
| CC(/C=C/c1ccccc1-c1ccc2c(c1)C(C)(C)CCC2(C)C)=C\C(=O)O | > 1000 nM |
| CC(C=CC1CC1(C)c1ccc2c(c1)C(C)(C)CCO2)=CC(=O)O (stereo not shown) | > 1000 nM |
| CC(C=CC1CC1(C)c1cc2c(cc1C)C(C)(C)CCC2(C)C)=CC(=O)O (stereo not shown) | > 1000 nM |

----------
# experimental_system: UniProtKB P28704
# Sequence (P28704 whole entry): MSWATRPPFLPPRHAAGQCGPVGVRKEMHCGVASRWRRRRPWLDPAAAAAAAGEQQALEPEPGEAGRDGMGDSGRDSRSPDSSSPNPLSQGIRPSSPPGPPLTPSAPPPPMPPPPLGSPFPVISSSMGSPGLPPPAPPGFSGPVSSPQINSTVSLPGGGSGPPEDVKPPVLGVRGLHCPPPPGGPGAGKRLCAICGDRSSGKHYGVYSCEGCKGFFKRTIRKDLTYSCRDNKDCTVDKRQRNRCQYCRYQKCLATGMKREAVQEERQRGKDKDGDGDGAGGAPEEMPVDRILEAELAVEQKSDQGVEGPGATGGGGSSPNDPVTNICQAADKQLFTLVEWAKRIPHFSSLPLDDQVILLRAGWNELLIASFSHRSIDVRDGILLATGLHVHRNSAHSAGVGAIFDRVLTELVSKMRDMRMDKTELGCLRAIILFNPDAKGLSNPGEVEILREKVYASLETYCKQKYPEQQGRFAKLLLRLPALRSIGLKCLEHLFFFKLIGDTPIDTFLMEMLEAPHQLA
# test_description: Holoreceptor transactivation assay, RXRβ
# Assay type: cell-based
# condition_info: relative to all trans retinoic acid; read-out: Transactivation Assay Afficacy (% of RA activity) RXRβ
A collection of compounds and their measured Emax

| compound | Emax (%) |
| --- | --- |
| CC(C=CC1CC1(C)c1ccc2c(c1)C(C)(C)CCO2)=CC(=O)O (stereo not shown) | 93 |
| CC(C=CC1CC1(C)c1ccc2c(c1)C(C)(C)CCS2)=CC(=O)O (stereo not shown) | 118 |
| CC(C=CC1CC1(C)c1cc2c(cc1C)C(C)(C)CCC2(C)C)=CC(=O)O (stereo not shown) | 72 |
| CC(/C=C/c1ccccc1-c1ccc2c(c1)C(C)(C)CCC2(C)C)=C\C(=O)O | 94 |

----------
# experimental_system: RXRΓ (Mus musculus)
# Sequence (P28705 whole entry): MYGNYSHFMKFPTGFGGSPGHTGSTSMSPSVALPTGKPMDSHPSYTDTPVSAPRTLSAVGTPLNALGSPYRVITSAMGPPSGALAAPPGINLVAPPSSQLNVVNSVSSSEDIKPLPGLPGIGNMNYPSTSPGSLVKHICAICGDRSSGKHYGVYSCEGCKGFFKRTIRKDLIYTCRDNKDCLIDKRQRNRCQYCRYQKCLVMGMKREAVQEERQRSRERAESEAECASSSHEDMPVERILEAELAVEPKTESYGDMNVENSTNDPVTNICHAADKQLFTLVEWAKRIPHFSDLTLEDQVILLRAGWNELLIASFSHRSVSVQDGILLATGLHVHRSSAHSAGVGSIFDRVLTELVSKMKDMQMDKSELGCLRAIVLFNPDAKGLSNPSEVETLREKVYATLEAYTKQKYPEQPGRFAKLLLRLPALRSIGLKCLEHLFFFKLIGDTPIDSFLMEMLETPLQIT
# test_description: Holoreceptor transactivation assay, RXRΓ
# condition_info: CV1 cells, luciferase reporter, 36 hours incubation
Recorded EC50 for the following compounds
quantity_name: EC50 (nM)

| compound | test_result |
| --- | --- |
| CC(C=CC1CC1(C)c1ccc2c(c1)C(C)(C)CCO2)=CC(=O)O (stereo not shown) | 29 |
| CC(C=CC1CC1(C)c1cc2c(cc1C)C(C)(C)CCC2(C)C)=CC(=O)O (stereo not shown) | 71 |
| CC(/C=C/c1ccccc1-c1ccc2c(c1)C(C)(C)CCC2(C)C)=C\C(=O)O | 240 |
| CC(C=CC1CC1(C)c1ccc2c(c1)C(C)(C)CCS2)=CC(=O)O (stereo not shown) | 13 |

----------
# experimental_system: RXRα (Homo sapiens)
# Construct: expressed in transfected cells; host or cells: CV1 cells
# Sequence (P19793 whole entry): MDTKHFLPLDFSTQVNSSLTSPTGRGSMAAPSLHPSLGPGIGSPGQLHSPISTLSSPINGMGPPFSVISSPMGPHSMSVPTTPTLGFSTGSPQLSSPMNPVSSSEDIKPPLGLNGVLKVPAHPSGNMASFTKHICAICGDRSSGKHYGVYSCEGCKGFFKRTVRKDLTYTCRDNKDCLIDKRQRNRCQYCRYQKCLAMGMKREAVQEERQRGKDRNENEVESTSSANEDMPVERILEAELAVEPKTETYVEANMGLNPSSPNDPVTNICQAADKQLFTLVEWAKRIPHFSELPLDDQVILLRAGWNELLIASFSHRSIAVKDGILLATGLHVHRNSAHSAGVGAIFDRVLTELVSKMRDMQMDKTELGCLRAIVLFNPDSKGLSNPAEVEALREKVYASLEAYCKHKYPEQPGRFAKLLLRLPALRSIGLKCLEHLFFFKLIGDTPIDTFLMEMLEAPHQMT
# test_description: Holoreceptor transactivation assay, RXRα
# Assay type: cell-based
# condition_info: relative to all trans retinoic acid
// values below are reported Transactivation Assay Afficacy (% of RA activity) RXRα
quantity_name: Transactivation Assay Afficacy (% of RA activity) RXRα

| compound | test_result |
| --- | --- |
| CC(C=CC1CC1(C)c1ccc2c(c1)C(C)(C)CCO2)=CC(=O)O (stereo not shown) [Compound 21] | 83.0 % of RA activity |
| CC(C=CC1CC1(C)c1ccc2c(c1)C(C)(C)CCS2)=CC(=O)O (stereo not shown) [Compound 17] | 111 % of RA activity |
| CC(C=CC1CC1(C)c1cc2c(cc1C)C(C)(C)CCC2(C)C)=CC(=O)O (stereo not shown) [Compound 13] | 55.0 % of RA activity |
| CC(/C=C/c1ccccc1-c1ccc2c(c1)C(C)(C)CCC2(C)C)=C\C(=O)O [Compound 9] | 59.0 % of RA activity |

Data credit: patent US20020082419A1
